System: vaccinia virus WR
assay-name: microbe, parasite or virus in culture
Assay type: cell-based
run-parameters: Orthopoxvirus vaccinia, BSC-1, 20 h, read-out: plaque red EC50
value-kind: pEC50
Answers are plain numbers, as −log10 of the molar value.

Consider the reported pEC50 for these compounds:
smiles-code	system-under-test	pEC50
Cc1cc(/N=C/c2cc(Cl)cc(Cl)c2O)no1	vaccinia virus WR	4.12
CCOC(=O)c1c(NC(=O)/C=C/C(=O)O)sc(C)c1-c1ccccc1	vaccinia virus WR	4.60

// for each compound in input: emit pEC50
1. Cc1ccc2c(Sc3ccc(Cl)cc3)c(C(=O)O)[nH]c2c1
2. CC(=O)n1c2ccccc2c2nc(C)sc21
3. Cc1c(/N=C/c2cc(Br)cc(Br)c2Br)cccc1C(=O)O

[4.12, 4.00, 4.12]
